meta.source: the supplement of paper PMC10567573

B1: CHCHD3 (parent)
chain: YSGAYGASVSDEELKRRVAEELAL

# Variants of: B1
# assay notes: protein stability index of a GFP-peptide fusion (GPS, HEK-293T) (PSI 1-6); higher = more stable;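 also: lentivirally expressed fusions sorted by FACS into six bins by GFP to DsRed ratio, PSI derived from sequencing read proportions per bin multiplied by bin number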
# test context: c terminus: a fixed tail appended
recorded endpoint: protein stability index
Please give only the number in your answer, with no unit.

// known answers, use as guide
variant key	protein stability index
E20N	2.15
Y1Q	5.07
G6S	2.13
Y1N	4.71
A7Y	2.61
A4T	3.66
L24Y	2.5
S2G	3.62

Request: # query: protein stability index of entry "L22N"
Result: 3.21

Request: # query: protein stability index of entry "K15T"
Result: 2.22

Request: # query: protein stability index of entry "K15V"
Result: 2.65

Request: # query: protein stability index of entry "L24N"
Result: 2.54

Request: # query: protein stability index of entry "S2D"
Result: 5.1

Request: # query: protein stability index of entry "V9W"
Result: 2.71

Request: # query: protein stability index of entry "L24G"
Result: 2.96

Request: # query: protein stability index of entry "A23L"
Result: 2.72

Request: # query: protein stability index of entry "S10D"
Result: 3.35

Request: # query: protein stability index of entry "V9A"
Result: 3.3

Request: # query: protein stability index of entry "R16Y"
Result: 2.19

Request: # query: protein stability index of entry "L22P"
Result: 2.47

Request: # query: protein stability index of entry "D11K"
Result: 2.49

Request: # query: protein stability index of entry "S2E"
Result: 4.78

Request: # query: protein stability index of entry "L14V"
Result: 2.63
